assay_text: fission yeast growth modulation, primary screen, strain 972, OD600, 24 h, no modulator (AID 1090);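 also: basal condition with compound alone and no growth modifier present; test concentration not given here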
measurement_context: S. pombe 972 growth, higher = more signal, called active from +8 up or from −8 down

# compound, z-score
measured = [
    ("C=C(C)[C@@H]1CC=C(C(O)C2C=CC3C(=O)NC(=O)C3N2Nc2ccccn2)CC1 (stereo not given in full)", 0.514),
    ("Cc1cc(C)c(C(O)C2C=CC3C(=O)N(C)C(=O)C3N2N2CCCCC2)c(C)c1 (stereo not given)", 1.08),
    ("NC(=O)NCC#Cc1ccc2c(c1)[C@]1(C(=O)N2)[C@H](C(=O)N2CCCCCCC2)[C@H]2C(=O)O[C@H](c3ccccc3)[C@H](c3ccccc3)N2[C@@H]1c1ccccc1OCCO", -3.26),
    ("O=C1C[C@@](C(=O)NCCN2CCOCC2)(c2ccc([N+](=O)[O-])cc2)[C@@H](c2ccc(CO)cc2)N1C1CCCCC1", -0.824),
    ("CCOC(=O)C[C@H]1[C@H](OC(=O)c2cc3ccccc3oc2=O)[C@@H](NC(=O)C2CCCCC2)c2cc(OCCCO)ccc2N1C(=O)c1ccc2ccccc2n1", 0.802),
    ("COc1ccc([Si](C)(C)[C@H]2[C@H](CC(=O)N(CCO)Cc3ccccc3)O[C@@]3(C(=O)N(C)c4ccccc43)[C@@H]2C)cc1", -1.24),
    ("CCC(=O)[C@]12O[C@@]3([C@@H]4C(=O)OCC[C@@H]41)N(Cc1ccccc1)C(C)=C(C(=O)OC)[C@@H](c1ccccc1)N3C2=O", -1.16),
    ("CC(C)N1CC=CC23O[C@@H]4/C=C\\CCCOC(=O)C4[C@H]2C(=O)N(CCO)[C@@H]3C1=O (stereo not given in full)", -3.04),
    ("COc1ccc(-c2cc3c(c(-c4ccccc4)n2)[Si](C(C)C)(C(C)C)O[C@H]3c2ccccc2)cn1", -0.572),
    ("[N-]=[N+]=NCc1ccccc1C[C@]1(C(N)=O)N=C(c2ccc(OCCCO)cc2)O[C@H]1c1ccccc1CN=[N+]=[N-]", -2.11),
    ("CCCCO[C@H]1C[C@H]2C(Br)=C[C@@]1(CO)C(=O)[C@]21CO1", -2.1),
    ("CC(c1ccccc1)C(O)C1C=CC2C(=O)N(C)C(=O)C2N1N(c1ccccc1)c1ccccc1 (stereo not given)", 0.184),
    ("CC(C)(C)OC(=O)CC[C@]1(C(=O)N2CCCCC2)N=C(c2ccc(OCCCO)cc2)O[C@H]1c1ccccc1", -3.11),
    ("O=C(CS)NCCCCCNC(=O)[C@H]1C[C@H]2C(=O)N[C@@H](Cc3ccccc3)C(=O)N2[C@H]1c1ccc(O)cc1", -0.982),
    ("C=CCC(OC(C)=O)[C@@H]1[C@@H](N(Cc2cc3ccccc3o2)C(=O)c2ccc(C)cc2)c2cc(OCCCO)ccc2N1C(=O)c1ccc2ccccc2n1 (stereo not given in full)", -0.518),
]

Source: PubChem BioAssay
